biological target: SMARCA2-HiBiT HeLa cells (protein which is expressed from the SMARCA2 gene) (Homo sapiens, UniProt P51531); construct: protein which is expressed from the SMARCA2 and SMARCA4 genes; host or cells: HeLa (SMARCA2-HiBiT engineered line); experiment: SMARCA2 degradation assay (HiBiT-fusion HeLa cell line, 24 h, luminescence); assay type: cell-based; settings: 1 μM
Sequence (P51531 whole entry, the tested form may be a part): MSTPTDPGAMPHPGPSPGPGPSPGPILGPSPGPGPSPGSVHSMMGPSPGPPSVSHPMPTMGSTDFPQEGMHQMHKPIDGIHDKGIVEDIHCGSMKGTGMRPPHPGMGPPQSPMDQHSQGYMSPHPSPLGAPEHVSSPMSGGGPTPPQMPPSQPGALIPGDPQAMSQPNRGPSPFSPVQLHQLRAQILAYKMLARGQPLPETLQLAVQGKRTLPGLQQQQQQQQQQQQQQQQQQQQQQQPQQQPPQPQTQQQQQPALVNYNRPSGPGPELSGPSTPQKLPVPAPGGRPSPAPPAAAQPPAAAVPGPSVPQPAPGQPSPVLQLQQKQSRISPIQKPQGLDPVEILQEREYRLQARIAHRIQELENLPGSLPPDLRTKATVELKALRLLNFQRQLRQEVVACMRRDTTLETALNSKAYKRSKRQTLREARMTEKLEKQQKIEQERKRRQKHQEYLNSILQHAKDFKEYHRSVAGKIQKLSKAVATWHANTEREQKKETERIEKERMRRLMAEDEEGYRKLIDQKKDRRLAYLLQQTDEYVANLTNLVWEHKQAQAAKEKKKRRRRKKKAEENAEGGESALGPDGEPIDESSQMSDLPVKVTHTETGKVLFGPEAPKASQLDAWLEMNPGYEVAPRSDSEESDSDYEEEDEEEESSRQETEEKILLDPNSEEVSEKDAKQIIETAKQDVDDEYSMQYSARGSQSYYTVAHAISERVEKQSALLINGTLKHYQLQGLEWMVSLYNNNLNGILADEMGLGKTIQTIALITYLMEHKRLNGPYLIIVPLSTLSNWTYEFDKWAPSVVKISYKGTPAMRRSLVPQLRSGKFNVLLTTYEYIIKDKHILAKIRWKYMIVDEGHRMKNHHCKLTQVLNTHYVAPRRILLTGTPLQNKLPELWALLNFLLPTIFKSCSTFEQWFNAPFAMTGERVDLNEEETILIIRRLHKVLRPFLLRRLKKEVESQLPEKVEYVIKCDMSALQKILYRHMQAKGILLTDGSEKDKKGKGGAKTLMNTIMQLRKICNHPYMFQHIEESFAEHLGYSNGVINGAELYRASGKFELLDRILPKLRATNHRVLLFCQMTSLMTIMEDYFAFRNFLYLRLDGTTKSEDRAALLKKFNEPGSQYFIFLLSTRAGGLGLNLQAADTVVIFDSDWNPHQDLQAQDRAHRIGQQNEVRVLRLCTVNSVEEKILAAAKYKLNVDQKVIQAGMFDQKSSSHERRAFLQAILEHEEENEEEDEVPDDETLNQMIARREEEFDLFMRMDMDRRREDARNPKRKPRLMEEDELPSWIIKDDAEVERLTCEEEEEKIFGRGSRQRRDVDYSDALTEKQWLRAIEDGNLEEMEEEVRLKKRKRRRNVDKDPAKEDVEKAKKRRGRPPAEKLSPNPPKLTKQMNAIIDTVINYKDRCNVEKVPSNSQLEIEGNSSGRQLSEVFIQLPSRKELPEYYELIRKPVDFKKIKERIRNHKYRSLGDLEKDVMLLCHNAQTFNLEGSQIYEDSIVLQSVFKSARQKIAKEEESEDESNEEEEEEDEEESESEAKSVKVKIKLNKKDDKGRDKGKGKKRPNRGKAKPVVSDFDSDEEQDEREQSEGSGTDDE
parameter_measured: SMARCA2 % Degradation @ 1 μM

Please review the following examples before continuing.
What does the record list as SMARCA2 % Degradation @ 1 μM for C[C@@H]1CCN(c2cc(-c3ccccc3O)nnc2N)CCN1c1cc(C#CCn2ccnc2)ncc1Cl ?
++ (++=30-70%)

What does the data say about its SMARCA2 % Degradation @ 1 μM? Entry: C[C@@H]1CCN(c2cc(-c3ccccc3O)nnc2N)CCN1c1ccnc(C#CC2CC(F)(F)C2)c1
+++ (+++=>70%)

Look up SMARCA2 % Degradation @ 1 μM: C[C@@H]1CCN(c2cc(-c3ccccc3O)nnc2N)CCN1c1ccnc(C#CCN2CCOCC2)c1
++ (++=30-70%)

Query (molecule): C[C@@H]1CCN(c2cc(-c3ccccc3O)nnc2N)CCN1c1ccnc(C#C[C@@H](C)O)c1 ; field requested: SMARCA2 % Degradation @ 1 μM
+++ (+++=>70%)

Tell me the measured SMARCA2 % Degradation @ 1 μM of C[C@@H]1CCN(c2cc(-c3ccccc3O)nnc2N)CCN1c1cc(C#CCN(C)C)ncc1Cl , please.
+ (+=<30%)

Report SMARCA2 % Degradation @ 1 μM for CN(C)CC#Cc1cc(OC2CCN(c3cc(-c4ccccc4O)nnc3N)CC2)ccn1 please.
++ (++=30-70%)

Look up SMARCA2 % Degradation @ 1 μM for this molecule: C[C@@H]1CCN(c2cc(-c3ccccc3O)nnc2N)CCN1c1ccnc(C#CCN2[C@H](C)COC[C@@H]2C)c1
+ (+=<30%)

Endpoint output: SMARCA2 % Degradation @ 1 μM of CC(C)OCC#Cc1cc(N2CCN(c3cc(-c4ccccc4O)nnc3N)CC[C@H]2C)ccn1 . Value?
+++ (+++=>70%)

---
State the recorded SMARCA2 % Degradation @ 1 μM for this entry: C[C@@H]1CCN(c2cc(-c3ccccc3O)nnc2N)CCN1c1ccnc(C#CCO)c1
++ (++=30-70%)

So what does the record say about SMARCA2 % Degradation @ 1 μM for C[C@@H]1CCN(c2cc(-c3ccccc3O)nnc2N)CCN1c1cc(C#CCN2CCCCC2)ncc1F ?
+ (+=<30%)

What does the data say about its SMARCA2 % Degradation @ 1 μM? Entry: C[C@@H]1CCN(c2cc(-c3ccccc3O)nnc2N)CCN1c1cc(C#CCN(C)C)ncc1F
+ (+=<30%)

Data request, read-out SMARCA2 % Degradation @ 1 μM, for COCC#Cc1cc(N2CCN(c3cc(-c4ccccc4O)nnc3N)CC[C@H]2C)ccn1
++ (++=30-70%)

SMARCA2 % Degradation @ 1 μM lookup needed for C[C@@H]1CCN(c2cc(-c3ccccc3O)nnc2N)CCN1c1ccnc(C#CCN(C)C)c1 , thanks.
+++ (+++=>70%)

---

Reported DC50 values for a set of compounds
target: SMARCA4-HiBiT HeLa cells (protein which is expressed from the SMARCA4 gene) (Homo sapiens, UniProt P51532); construct: protein which is expressed from the SMARCA2 and SMARCA4 genes; host or cells: HeLa (SMARCA4-HiBiT engineered line); test: SMARCA4 degradation assay (HiBiT-fusion HeLa cell line, 24 h, luminescence); format: cell-based
Sequence (P51532 whole entry, the tested form may be a part): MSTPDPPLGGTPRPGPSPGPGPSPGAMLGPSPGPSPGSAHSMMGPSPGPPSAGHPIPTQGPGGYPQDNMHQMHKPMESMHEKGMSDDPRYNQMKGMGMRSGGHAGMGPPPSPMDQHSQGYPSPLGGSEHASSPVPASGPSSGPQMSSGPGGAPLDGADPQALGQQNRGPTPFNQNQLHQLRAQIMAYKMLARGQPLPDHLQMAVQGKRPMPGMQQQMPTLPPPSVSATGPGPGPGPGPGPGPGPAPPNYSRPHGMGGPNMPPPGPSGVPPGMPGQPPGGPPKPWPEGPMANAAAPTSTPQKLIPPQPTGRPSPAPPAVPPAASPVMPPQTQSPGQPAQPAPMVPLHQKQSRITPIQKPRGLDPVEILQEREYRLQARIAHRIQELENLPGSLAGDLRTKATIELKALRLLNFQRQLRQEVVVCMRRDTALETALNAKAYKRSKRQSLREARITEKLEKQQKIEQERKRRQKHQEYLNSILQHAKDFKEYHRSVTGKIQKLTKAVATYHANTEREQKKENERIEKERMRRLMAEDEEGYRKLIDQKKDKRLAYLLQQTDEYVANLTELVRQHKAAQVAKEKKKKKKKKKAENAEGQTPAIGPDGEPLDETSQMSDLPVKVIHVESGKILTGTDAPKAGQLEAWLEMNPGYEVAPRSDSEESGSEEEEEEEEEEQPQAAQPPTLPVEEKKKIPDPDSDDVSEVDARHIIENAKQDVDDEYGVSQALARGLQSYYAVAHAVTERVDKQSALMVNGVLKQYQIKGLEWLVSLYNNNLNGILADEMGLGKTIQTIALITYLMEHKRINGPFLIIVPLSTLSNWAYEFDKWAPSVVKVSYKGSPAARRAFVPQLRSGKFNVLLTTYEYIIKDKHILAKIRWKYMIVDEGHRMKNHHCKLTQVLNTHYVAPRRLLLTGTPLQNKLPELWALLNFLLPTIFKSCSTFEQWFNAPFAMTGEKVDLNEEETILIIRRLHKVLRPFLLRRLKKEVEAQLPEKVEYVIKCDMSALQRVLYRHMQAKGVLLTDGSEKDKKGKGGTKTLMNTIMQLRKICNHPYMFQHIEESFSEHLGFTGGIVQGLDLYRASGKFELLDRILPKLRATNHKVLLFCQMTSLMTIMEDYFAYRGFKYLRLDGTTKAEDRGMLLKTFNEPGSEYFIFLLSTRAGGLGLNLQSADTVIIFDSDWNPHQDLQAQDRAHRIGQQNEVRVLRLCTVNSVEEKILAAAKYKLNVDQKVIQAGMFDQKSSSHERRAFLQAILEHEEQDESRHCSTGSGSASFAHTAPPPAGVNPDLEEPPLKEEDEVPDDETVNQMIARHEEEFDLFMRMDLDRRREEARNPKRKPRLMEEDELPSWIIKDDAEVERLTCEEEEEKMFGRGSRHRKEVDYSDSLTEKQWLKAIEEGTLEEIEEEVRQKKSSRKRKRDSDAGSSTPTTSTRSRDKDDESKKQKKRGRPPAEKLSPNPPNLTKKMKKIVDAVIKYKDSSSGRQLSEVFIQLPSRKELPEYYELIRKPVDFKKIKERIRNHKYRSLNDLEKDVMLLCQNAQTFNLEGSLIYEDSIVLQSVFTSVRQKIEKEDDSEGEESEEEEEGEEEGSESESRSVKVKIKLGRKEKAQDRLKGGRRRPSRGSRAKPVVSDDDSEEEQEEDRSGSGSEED

As a guide, the following entries are already answered.
Look at this compound and give its reported DC50. CN1CCC(C#Cc2nccc(N3CCCN(c4cc(-c5ccccc5O)nnc4N)CC3)n2)CC1 [Compound P-256]
500 to 5000 nM

// lookup DC50 for CC1CCC(C)N1CC#Cc1nccc(N2CCN(c3cc(-c4ccccc4O)nnc3N)CC[C@H]2C)n1 (stereo partly shown) [Compound P-246]
< 50 nM

Which DC50 reading was recorded for the compound CC(C#Cc1ncc(F)c(N2CCN(c3cc(-c4ccccc4O)nnc3N)CC[C@H]2C)n1)N(C)C (stereo partly shown) [Compound P-208] ?
50 to 500 nM

Dear colleague, I am looking for the recorded DC50 of the following compound: Nc1nnc(-c2ccccc2O)cc1N1CCN(c2ccnc(C#CCNC(=O)c3ccn(C(F)F)n3)n2)CC1 [Compound P-10]
< 50 nM

Given the compound CC[C@@H](C)NCC#Cc1nccc(N2CCCN(c3cc(-c4ccccc4O)nnc3N)CC2)n1 [Compound P-274] , what is its reported DC50?
50 to 500 nM

Using the record for CN(C)CC#Cc1cc(OC2CN(c3cc(-c4ccccc4O)nnc3N)C2)ccn1 [Compound P-386] , report its DC50.
< 50 nM

Continuing:
Entry C[C@@H]1CCN(c2cc(-c3ccccc3O)nnc2N)CCN1c1ccnc(C#CCN2[C@H](C)C[C@@H]2C)n1 [Compound P-223] : reported DC50 = ?
< 50 nM

# input compound: Cc1nn2ccn(CC#Cc3nccc(N4CCN(c5cnnc(-c6ccccc6O)c5)CC[C@H]4C)n3)c(=O)c2c1C [Compound P-235] ; wanted: its DC50
500 to 5000 nM

DC50 for Nc1nnc(-c2ccccc2O)cc1-c1cnn(C2CN(c3ccnc(C#CCn4ccnc4)n3)C2)c1 [Compound P-212] ?
50 to 500 nM

Which value of DC50 has been reported for Nc1nnc(-c2ccccc2O)cc1N1CCCN(c2ccnc(C#CCn3cncn3)n2)CC1 [Compound P-148] in the records?
50 to 500 nM
